pIC50: −log10 of the molar value.
System: Matrix metalloproteinase-9 (Homo sapiens, UniProt P14780) | Read-out: pIC50
Sequence (P14780 whole entry): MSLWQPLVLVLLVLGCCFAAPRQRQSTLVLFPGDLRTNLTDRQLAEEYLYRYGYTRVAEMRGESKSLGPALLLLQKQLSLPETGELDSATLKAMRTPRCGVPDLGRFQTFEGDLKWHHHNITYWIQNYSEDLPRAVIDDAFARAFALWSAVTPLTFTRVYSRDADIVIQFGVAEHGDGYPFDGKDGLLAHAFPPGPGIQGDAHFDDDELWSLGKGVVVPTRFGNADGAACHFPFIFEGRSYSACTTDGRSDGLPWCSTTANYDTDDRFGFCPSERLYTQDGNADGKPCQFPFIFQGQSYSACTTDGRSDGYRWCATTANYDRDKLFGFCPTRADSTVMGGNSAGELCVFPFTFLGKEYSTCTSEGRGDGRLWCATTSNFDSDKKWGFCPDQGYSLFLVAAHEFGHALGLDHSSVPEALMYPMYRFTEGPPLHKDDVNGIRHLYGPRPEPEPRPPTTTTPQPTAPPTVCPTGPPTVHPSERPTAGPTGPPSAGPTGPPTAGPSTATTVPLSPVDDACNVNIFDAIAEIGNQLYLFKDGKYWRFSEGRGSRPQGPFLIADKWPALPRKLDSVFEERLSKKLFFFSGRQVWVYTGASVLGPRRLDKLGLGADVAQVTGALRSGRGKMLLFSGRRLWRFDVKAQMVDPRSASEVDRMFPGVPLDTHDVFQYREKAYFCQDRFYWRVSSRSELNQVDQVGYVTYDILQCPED

Below are worked cases with known answers.
INSERT INTO measurements (smiles_notation, system_under_test, measurement_label, experimental_value) VALUES
  ('O=C(NO)[C@@H]1CCCN1Cc1ccc(C#Cc2ccc(CN3CCOCC3)cc2)cc1', 'Matrix metalloproteinase-9 (Homo sapiens, UniProt P14780)', 'pIC50', '< 5.00'),
  ('CC1(C)O[C@@H]2[C@@H](CN(C(=O)c3ccc(C#Cc4ccc(CN5CCOCC5)cc4)cc3)[C@H]2C(=O)NO)O1', 'Matrix metalloproteinase-9 (Homo sapiens, UniProt P14780)', 'pIC50', '< 5.00'),
  ('O=C(NO)[C@H]1[C@H](O)[C@H](O)CN1C(=O)c1ccc(C#Cc2ccc(CN3CCSCC3)cc2)cc1', 'Matrix metalloproteinase-9 (Homo sapiens, UniProt P14780)', 'pIC50', '< 5.00'),
  ('O=C(NO)[C@H]1[C@H](O)[C@H](O)CN1C(=O)c1ccc(C#Cc2ccc(CN3CCOCC3)cc2)cc1', 'Matrix metalloproteinase-9 (Homo sapiens, UniProt P14780)', 'pIC50', '< 5.00'),
  ('O=C(NO)[C@@H]1C[C@@H](O)CN1C(=O)c1ccc(C#Cc2ccc(CN3CCOCC3)cc2)cc1', 'Matrix metalloproteinase-9 (Homo sapiens, UniProt P14780)', 'pIC50', 5.05);

Could you now consider this next compound?
// assay Matrix metalloproteinase-9 (Homo sapiens, UniProt P14780), entry "O=C(NO)[C@@H]1C[C@H](O)CN1C(=O)c1ccc(C#Cc2ccc(CN3CCOCC3)cc2)cc1" , pIC50 value = 6.00

---

system-under-test: Neutrophil collagenase (Homo sapiens, UniProt P22894)
Sequence (P22894 whole entry): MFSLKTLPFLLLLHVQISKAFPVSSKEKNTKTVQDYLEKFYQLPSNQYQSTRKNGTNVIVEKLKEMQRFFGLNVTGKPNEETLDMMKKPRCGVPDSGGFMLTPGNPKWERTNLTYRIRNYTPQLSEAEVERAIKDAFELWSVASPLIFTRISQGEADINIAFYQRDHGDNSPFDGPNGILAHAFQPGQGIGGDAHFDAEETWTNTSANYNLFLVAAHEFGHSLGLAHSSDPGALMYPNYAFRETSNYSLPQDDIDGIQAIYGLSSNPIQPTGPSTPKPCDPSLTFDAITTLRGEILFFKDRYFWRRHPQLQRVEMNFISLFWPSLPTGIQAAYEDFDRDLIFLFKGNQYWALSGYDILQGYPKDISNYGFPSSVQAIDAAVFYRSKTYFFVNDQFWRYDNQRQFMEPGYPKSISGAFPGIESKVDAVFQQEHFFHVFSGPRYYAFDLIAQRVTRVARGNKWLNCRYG
method-notes: Inhibition of human MMP8 using (7-methoxycoumarin-4-yl)acetyl-Pro-Leu-Gly-Leu-(3-(2,4-dinitrophenyl)-L-2,3-diamino-propionyl)Ala-Arg-NH2 as substrate preincubated for 30 mins followed by substrate addition and measured by fluorescence assay
IC50 listing for selected compounds.
Field format: number, assumed nM, no unit text.

INSERT INTO measurements (smiles_notation, system_under_test, measurement_label, experimental_value) VALUES
  ('O=C(NO)[C@@H]1C[C@H](O)CN1C(=O)c1ccc(C#Cc2ccc(OCCCCCF)cc2)cc1', 'Neutrophil collagenase (Homo sapiens, UniProt P22894)', 'IC50', 21),
  ('CCCCCc1ccc(C#Cc2ccc(C(=O)N3C[C@H](O)C[C@H]3C(=O)NO)cc2)cc1', 'Neutrophil collagenase (Homo sapiens, UniProt P22894)', 'IC50', 282),
  ('O=C(NO)[C@H]1CCCN1C(=O)c1ccc(C#Cc2ccc(CN3CCOCC3)cc2)cc1', 'Neutrophil collagenase (Homo sapiens, UniProt P22894)', 'IC50', 50),
  ('O=C(NO)[C@@H]1C[C@H](O)CN1C(=O)c1ccc(C#Cc2ccc(CN3CCOCC3)cc2)cc1', 'Neutrophil collagenase (Homo sapiens, UniProt P22894)', 'IC50', 198),
  ('O=C(NO)[C@@H]1C[C@@H](O)CN1C(=O)c1ccc(C#Cc2ccc(CN3CCOCC3)cc2)cc1', 'Neutrophil collagenase (Homo sapiens, UniProt P22894)', 'IC50', 2000);

// assay Neutrophil collagenase (Homo sapiens, UniProt P22894), entry "O=C(NO)[C@@H]1[C@H](O)[C@H](O)CN1C(=O)c1ccc(C#Cc2ccc(CN3CCOCC3)cc2)cc1" , IC50 value = 172

---

System: Klebsiella oxytoca
method-notes: Antibacterial activity against Klebsiella oxytoca assessed as diameter of inhibition zone measured after 24 hrs by agar disc diffusion method; further: test concentration or dose not given here
Assay type: functional
diameter of the inhibition zone (DIZ) listing for selected compounds.

Below are worked cases with known answers.
INSERT INTO measurements (smiles_notation, experimental_value) VALUES
  ('O=C(NO)[C@@H]1C[C@@H](O)CN1Cc1ccc(C#Cc2ccc(CN3CCOCC3)cc2)cc1', '<6 mm'),
  ('O=C(NO)[C@@H]1CCCN1C(=O)c1ccc(C#Cc2ccc(CN3CCS(=O)(=O)CC3)cc2)cc1', '<6 mm');

// assay Klebsiella oxytoca, entry "O=C(NO)[C@@H]1C[C@@H](O)CN1C(=O)c1ccc(C#Cc2ccc(CN3CCOCC3)cc2)cc1" , diameter of the inhibition zone (DIZ) value = <6 mm

// assay Klebsiella oxytoca, entry "O=C(NO)[C@@H]1C[C@H](O)CN1C(=O)c1ccc(C#Cc2ccc(CN3CCCC3)cc2)cc1" , diameter of the inhibition zone (DIZ) value = <6 mm

---

Test system: Escherichia coli
method-notes: Antibacterial activity against Escherichia coli BL21(DE3) measured after 20 hrs by microdilution method
Assay type: functional
measurement-label: MIC

Below are worked cases with known answers.
INSERT INTO measurements (smiles_notation, system_under_test, measurement_label, experimental_value) VALUES
  ('O=C(NO)[C@@H]1C[C@H](O)CN1C(=O)c1ccc(C#Cc2ccc(OCCCCCF)cc2)cc1', 'Escherichia coli', 'MIC', '> 256 µM'),
  ('O=C(NO)[C@@H]1C[C@H](F)CN1C(=O)c1ccc(C#Cc2ccccc2)cc1', 'Escherichia coli', 'MIC', '> 256 µM'),
  ('N[C@H]1C[C@@H](C(=O)NO)N(C(=O)c2ccc(C#Cc3ccccc3)cc2)C1', 'Escherichia coli', 'MIC', '> 256 µM');

Just so you know, measured MIC for "O=C(NO)[C@@H]1C[C@H](O)CN1C(=O)c1ccc(C#Cc2ccccc2)cc1" came out at > 256 µM

Just so you know, measured MIC for "O=C(NO)[C@@H]1C[C@@H](O)CN1Cc1ccc(C#Cc2ccc(CN3CCOCC3)cc2)cc1" came out at > 256 µM

Just so you know, measured MIC for "O=C(NO)[C@@H]1[C@H](O)[C@H](O)CN1C(=O)c1ccc(C#Cc2ccc(CN3CCOCC3)cc2)cc1" came out at 128 µM

Just so you know, measured MIC for "O=C(NO)[C@H]1[C@H](O)[C@H](O)CN1C(=O)c1ccc(C#Cc2ccc(CN3CCSCC3)cc2)cc1" came out at > 256 µM

Just so you know, measured MIC for "O=C(NO)[C@@H]1CCCN1Cc1ccc(C#Cc2ccc(CN3CCOCC3)cc2)cc1" came out at 128 µM

Just so you know, measured MIC for "CCCCCc1ccc(C#Cc2ccc(C(=O)N3C[C@H](O)C[C@H]3C(=O)NO)cc2)cc1" came out at > 256 µM

Just so you know, measured MIC for "CCCCCc1ccc(C#Cc2ccc(C(=O)N3C[C@@H](O)C[C@H]3C(=O)NO)cc2)cc1" came out at > 256 µM

Just so you know, measured MIC for "Nc1ccc(C#Cc2ccc(C(=O)N3CCC[C@H]3C(=O)NO)cc2)cc1" came out at > 256 µM

Just so you know, measured MIC for "O=C(NO)[C@@H]1CCCN1C(=O)c1ccc(C#Cc2ccc(CN3CCCCC3)cc2)cc1" came out at > 256 µM

Just so you know, measured MIC for "O=C(NO)[C@H]1O[C@@H](c2ccc(C#Cc3ccc(CN4CCOCC4)cc3)cc2)[C@@H](O)[C@H]1O" came out at > 256 µM

---

System: 72 kDa type IV collagenase (Homo sapiens, UniProt P08253) | Read-out: pIC50
Sequence (P08253 whole entry): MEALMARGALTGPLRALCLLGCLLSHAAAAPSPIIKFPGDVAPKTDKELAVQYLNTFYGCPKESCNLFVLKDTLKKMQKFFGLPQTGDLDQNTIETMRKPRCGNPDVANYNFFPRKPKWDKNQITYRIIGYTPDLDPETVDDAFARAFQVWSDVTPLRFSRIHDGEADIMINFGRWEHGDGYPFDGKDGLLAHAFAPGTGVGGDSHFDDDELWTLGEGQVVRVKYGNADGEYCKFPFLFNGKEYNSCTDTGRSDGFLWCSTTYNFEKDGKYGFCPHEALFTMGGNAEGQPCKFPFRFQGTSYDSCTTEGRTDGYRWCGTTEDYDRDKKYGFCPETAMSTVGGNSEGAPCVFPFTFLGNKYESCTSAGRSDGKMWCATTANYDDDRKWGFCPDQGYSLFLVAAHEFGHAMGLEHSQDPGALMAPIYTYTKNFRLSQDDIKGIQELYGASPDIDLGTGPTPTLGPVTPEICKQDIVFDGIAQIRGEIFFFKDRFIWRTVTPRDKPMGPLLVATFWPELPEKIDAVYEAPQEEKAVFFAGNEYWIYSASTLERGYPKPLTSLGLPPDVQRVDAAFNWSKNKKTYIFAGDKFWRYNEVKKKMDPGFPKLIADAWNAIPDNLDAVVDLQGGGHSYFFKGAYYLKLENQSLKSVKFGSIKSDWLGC
pIC50: −log10 of the molar value.

INSERT INTO measurements (smiles_notation, system_under_test, measurement_label, experimental_value) VALUES
  ('O=C(NO)[C@@H]1C[C@@H](O)CN1Cc1ccc(C#Cc2ccc(CN3CCOCC3)cc2)cc1', '72 kDa type IV collagenase (Homo sapiens, UniProt P08253)', 'pIC50', '< 5.00'),
  ('O=C(NO)[C@H]1[C@H](O)[C@H](O)CN1C(=O)c1ccc(C#Cc2ccc(CN3CCSCC3)cc2)cc1', '72 kDa type IV collagenase (Homo sapiens, UniProt P08253)', 'pIC50', '< 5.00');

Could you now consider this next molecule?
// assay 72 kDa type IV collagenase (Homo sapiens, UniProt P08253), entry "O=C(NO)[C@H]1[C@H](O)[C@H](O)CN1C(=O)c1ccc(C#Cc2ccc(CN3CCOCC3)cc2)cc1" , pIC50 value = < 5.00

---

Tested on: Escherichia coli
method-notes: Antibacterial activity against Escherichia coli D22 measured after 20 hrs by microdilution method
Type: functional
particulars: D22, 20 h
measurement-label: MIC (µM)
Field format: number, assumed µM, no unit text.

Below are worked cases with known answers.
INSERT INTO measurements (smiles_notation, value_unit, experimental_value) VALUES
  ('O=C(NO)[C@@H]1C[C@@H](O)CN1C(=O)c1ccc(C#Cc2ccc(CN3CCOCC3)cc2)cc1', 'µM', 16),
  ('COc1ccc(C#Cc2ccc(C(=O)N3C[C@H](O)C[C@H]3C(=O)NO)cc2)cc1', 'µM', 64);

Just so you know, measured MIC for "O=C(NO)[C@@H]1C[C@H](O)CN1C(=O)c1ccc(C#Cc2ccc(CN3CCSCC3)cc2)cc1" came out at 8

Just so you know, measured MIC for "CN(C)c1ccc(C#Cc2ccc(C(=O)N3C[C@H](O)C[C@H]3C(=O)NO)cc2)cc1" came out at 32

Just so you know, measured MIC for "O=C(NO)[C@@H]1CCCN1C(=O)c1ccc(C#Cc2ccc(CN3CCOCC3)cc2)cc1" came out at 16

Just so you know, measured MIC for "O=C(NO)[C@@H]1C[C@@H](O)CN1C(=O)c1ccc(C#Cc2ccc(F)cc2)cc1" came out at 256

Just so you know, measured MIC for "COc1ccc(C#Cc2ccc(C(=O)N3C[C@@H](O)C[C@H]3C(=O)NO)cc2)cc1" came out at 128

Just so you know, measured MIC for "Nc1ccc(C#Cc2ccc(C(=O)N3CCC[C@H]3C(=O)NO)cc2)cc1" came out at 128

Just so you know, measured MIC for "CC1(C)O[C@@H]2[C@H](O1)[C@H](c1ccc(C#Cc3ccc(CN4CCOCC4)cc3)cc1)O[C@@H]2C(=O)NO" came out at 128

Just so you know, measured MIC for "O=C(NO)[C@@H]1C[C@H](O)CN1C(=O)c1ccc(C#Cc2ccc(CN3CCC(O)CC3)cc2)cc1" came out at 4

These measurements were taken from ChEMBL document CHEMBL4392848.
